Molecular target: T1, recombinant mouse IL-17A (SEQ ID NO: 83) (mouse, UniProt Q62386 26-158)
T1 sequence: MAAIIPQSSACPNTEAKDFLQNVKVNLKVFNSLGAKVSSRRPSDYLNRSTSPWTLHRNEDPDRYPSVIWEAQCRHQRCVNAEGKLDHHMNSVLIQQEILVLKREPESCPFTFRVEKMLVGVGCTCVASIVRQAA
Assay: cell-based or functional assay
READOUT: IC50, KC secretion by CMT-93 cells; stimulus mIL-17A (0.15 nM)

// query Give a short answer stating reported IC50, KC secretion by CMT-93 cells; stimulus mIL-17A (0.15 nM) for XAB3 (antibody, human IgG1, kappa, V domains shown, also called MB468 N56Q) VH: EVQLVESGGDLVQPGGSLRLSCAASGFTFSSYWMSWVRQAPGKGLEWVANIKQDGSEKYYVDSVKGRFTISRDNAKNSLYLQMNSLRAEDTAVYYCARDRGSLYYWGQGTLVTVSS VL: AIQLTQSPSSLSASVGDRVTITCRPSQGIYWELAWYQQKPGKAPKLLIYDASSLEQGVPSRFSGSGSGTDFTLTISSLQPEDFATYYCQQFNSYPLTFGGGTKVEIKR .
// result < 1 nM
